target: T1, human ROR1 (hROR1) (human, UniProt Q01973 30-937); experiment: flow cytometry, HCT116-hROR1 cells
T1 construct: On HCT116-hROR1 transfectants, Mino cells or Ntera-2 cells, as the assay of each row says; also called receptor tyrosine kinase like orphan receptor 1
observed.property: Bmax (MFI)
Reply with the number and its unit after it.

Summary for this binder, SRP2196-A08 (antibody, V domains shown, His/FLAG-tagged IgG1) VH: EVQLVESGGGLVQPGGSLRLSCAASGFNITGYYIHWVRQAPGKGLEWVGYISPNSGSTYKADSVKGRFTISADTSRNTAYLQMNSLRAEDTAVYYCARDSRRYVRSWDYWGQGTLVTVSS VL: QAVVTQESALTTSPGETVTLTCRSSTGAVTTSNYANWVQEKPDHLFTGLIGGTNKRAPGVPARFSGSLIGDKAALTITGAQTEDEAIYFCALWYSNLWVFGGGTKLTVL : Bmax (MFI) is 13900 MFI

Summary for this binder, SRP1944-A07 w SP34 LC3 (antibody, V domains shown, Parent of SRP2196; IgG) VH: EVQLVESGGGLVQPGGSLRLSCAASGFNITGYYIHWVRQAPGKGLEWVGYISPNSGSTYYADSVKGRFTISADTSKNTAYLQMNSLRAEDTAVYYCARDSRRYVRPFDYWGQGTLVTVSS VL: QTVVTQEPSLTVSPGGTVTLTCGSSTGAVTSGYYPNWFQQKPGQAPRGLIGGTKFLAPGTPARFSGSLLGGKAALTLSGVQPEDEAEYYCALWYSNRWVFGGGTQLTVTG : Bmax (MFI) is 13200 MFI
